target: Ba/F3 stable cells (Homo sapiens, UniProt P00533, DUP771-773, cells depend on it); construct: EC50 Ba/F3-EGFR H773-V774insNPH; other: Ba/F3-EGFR H773-V774insNPH cells, 72 h, CCK-8; experiment: EC50 assay: Ba/F3 stable cell proliferation (CCK-8, 72 h); conditions: Ba/F3-EGFR H773-V774insNPH cells
Sequence (P00533 with tags, fused parts or gaps DUP771-773): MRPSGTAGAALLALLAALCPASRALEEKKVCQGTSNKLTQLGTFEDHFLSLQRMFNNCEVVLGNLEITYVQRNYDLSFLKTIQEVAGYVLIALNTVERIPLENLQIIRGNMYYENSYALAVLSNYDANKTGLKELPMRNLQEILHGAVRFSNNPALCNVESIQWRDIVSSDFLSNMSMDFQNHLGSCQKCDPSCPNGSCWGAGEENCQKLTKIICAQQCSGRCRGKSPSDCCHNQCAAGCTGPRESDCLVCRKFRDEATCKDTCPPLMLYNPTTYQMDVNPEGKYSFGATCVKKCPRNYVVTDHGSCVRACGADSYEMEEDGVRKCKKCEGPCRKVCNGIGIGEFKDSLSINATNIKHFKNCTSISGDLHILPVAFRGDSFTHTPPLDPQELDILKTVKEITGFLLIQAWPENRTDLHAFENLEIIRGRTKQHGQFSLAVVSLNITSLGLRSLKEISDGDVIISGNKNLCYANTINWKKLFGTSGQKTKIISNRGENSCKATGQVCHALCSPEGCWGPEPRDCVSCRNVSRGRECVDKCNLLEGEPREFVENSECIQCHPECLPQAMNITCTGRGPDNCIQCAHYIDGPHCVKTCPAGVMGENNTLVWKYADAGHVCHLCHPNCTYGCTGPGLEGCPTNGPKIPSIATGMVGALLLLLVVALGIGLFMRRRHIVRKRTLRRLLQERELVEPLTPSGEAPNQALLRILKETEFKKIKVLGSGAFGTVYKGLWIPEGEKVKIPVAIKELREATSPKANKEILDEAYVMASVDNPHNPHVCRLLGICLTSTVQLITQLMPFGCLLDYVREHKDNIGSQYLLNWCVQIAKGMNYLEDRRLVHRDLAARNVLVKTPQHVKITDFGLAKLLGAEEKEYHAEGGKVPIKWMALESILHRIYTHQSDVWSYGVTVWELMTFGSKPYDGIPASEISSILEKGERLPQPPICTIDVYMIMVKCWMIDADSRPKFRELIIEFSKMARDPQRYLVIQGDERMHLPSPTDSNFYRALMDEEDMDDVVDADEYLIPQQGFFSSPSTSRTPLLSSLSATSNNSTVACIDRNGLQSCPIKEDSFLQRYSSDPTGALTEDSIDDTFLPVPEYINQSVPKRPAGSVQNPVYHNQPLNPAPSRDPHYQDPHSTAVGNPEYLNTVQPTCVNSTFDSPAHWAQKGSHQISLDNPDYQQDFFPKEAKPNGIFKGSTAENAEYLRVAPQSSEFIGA
Please respond with reported EC50 for every item in the list.

C=CC(=O)N1CCC(Oc2cc3c(Nc4ccc5nccnc5c4)ncnc3cc2OC)CC1 [Compound 144]
> 1000 nM

Give EC50 for each of the items listed below.
1. C=CS(=O)(=O)N1CCC=C(c2ccc3ncnc(Nc4ccc(Cl)c(Cl)c4F)c3c2)C1 [Compound 190]
2. C=CC(=O)N1CCC(Oc2cc3c(Nc4ccc5scnc5c4)ncnc3cc2OC)CC1 [Compound 142]
3. C=CC(=O)NC1CC(Oc2cc3c(Nc4ccc(Cl)c(F)c4Cl)ncnc3cc2OC)C1 (stereo not drawn) [Compound 75]
4. C#CC(=O)N1C2CCC1CC(Oc1cc3c(Nc4cccc5ccccc45)ncnc3cc1OC)C2 (stereo not drawn) [Compound 60]
5. C=CS(=O)(=O)NC1CC(Oc2cc3c(Nc4ccc(Cl)c(Cl)c4F)ncnc3cc2OC)C1 (stereo not drawn) [Compound 191]
6. C=CC(=O)N1C2CCC1CC(Oc1cc3c(Nc4ccc5ccccc5c4)ncnc3cc1OC)C2 (stereo not drawn) [Compound 180]

Reply:
≤ 200 nM
200 to 1000 nM
200 to 1000 nM
≤ 200 nM
≤ 200 nM
≤ 200 nM

Give EC50 for each of the items listed below.
1. C=CC(=O)N1CCCC(Oc2cc3c(Nc4ccc(Cl)c(Cl)c4F)ncnc3cc2OC)C1 (stereo not drawn) [Compound 132]
2. C=C(F)C(=O)N1CC(c2cc3c(Nc4ccc(Cl)c(Cl)c4F)ncnc3cc2OC)C1 [Compound 38]

Reply:
200 to 1000 nM
200 to 1000 nM

----------
biological target: Ba/F3 stable cells (Homo sapiens, UniProt P00533, INS763FQEA, cells depend on it); construct: EC50 Ba/F3-EGFR A763-Y764insFQEA; other: Ba/F3-EGFR A763-Y764insFQEA cells, 72 h, CCK-8; assay: EC50 assay: Ba/F3 stable cell proliferation (CCK-8, 72 h); details: Ba/F3-EGFR A763-Y764insFQEA cells
Sequence (P00533 with tags, fused parts or gaps INS763FQEA): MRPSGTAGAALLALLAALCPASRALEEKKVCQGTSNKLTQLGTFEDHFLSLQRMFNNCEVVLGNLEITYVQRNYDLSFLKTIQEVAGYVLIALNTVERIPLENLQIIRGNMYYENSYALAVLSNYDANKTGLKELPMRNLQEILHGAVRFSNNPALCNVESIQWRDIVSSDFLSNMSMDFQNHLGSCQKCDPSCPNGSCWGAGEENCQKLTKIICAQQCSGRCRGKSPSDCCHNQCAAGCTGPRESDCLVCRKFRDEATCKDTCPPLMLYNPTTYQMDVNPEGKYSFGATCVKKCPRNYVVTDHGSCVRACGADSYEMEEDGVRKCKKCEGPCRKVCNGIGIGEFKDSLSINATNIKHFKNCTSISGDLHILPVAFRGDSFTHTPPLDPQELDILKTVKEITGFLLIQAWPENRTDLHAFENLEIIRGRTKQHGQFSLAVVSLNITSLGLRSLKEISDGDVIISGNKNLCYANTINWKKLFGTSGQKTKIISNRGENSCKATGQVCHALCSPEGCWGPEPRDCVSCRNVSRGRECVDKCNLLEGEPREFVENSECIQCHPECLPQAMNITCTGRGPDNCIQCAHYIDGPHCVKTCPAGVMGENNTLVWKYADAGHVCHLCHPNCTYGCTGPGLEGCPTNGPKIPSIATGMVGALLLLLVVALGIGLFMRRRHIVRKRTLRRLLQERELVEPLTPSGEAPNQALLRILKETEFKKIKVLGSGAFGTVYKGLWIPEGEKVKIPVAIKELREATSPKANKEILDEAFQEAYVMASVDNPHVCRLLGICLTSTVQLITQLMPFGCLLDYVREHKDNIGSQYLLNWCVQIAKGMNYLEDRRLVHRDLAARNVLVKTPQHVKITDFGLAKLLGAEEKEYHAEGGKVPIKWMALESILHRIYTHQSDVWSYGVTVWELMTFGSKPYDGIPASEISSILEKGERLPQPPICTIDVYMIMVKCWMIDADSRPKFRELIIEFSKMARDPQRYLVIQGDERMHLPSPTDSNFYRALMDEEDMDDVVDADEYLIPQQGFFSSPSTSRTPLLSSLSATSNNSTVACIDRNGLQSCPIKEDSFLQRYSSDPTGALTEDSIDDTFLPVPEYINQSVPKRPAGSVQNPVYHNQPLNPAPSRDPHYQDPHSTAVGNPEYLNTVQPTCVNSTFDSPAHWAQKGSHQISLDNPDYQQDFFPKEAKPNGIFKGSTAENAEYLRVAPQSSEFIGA
pEC50: −log10 of the molar value.
READOUT_KIND: pEC50

C=CC(=O)N1CC(c2cc3c(Nc4ccc(Cl)c(Cl)c4F)ncnc3cc2OCCO)C1 [Compound 19]
≥ 6.70
C=CC(=O)N1CC(c2cc3c(Nc4ccc5c(c4)CCN5)ncnc3cc2OC)C1 [Compound 12]
< 6.00
C=CC(=O)N1CCC(Oc2cc3c(NC(=O)c4ccc(F)cc4)ncnc3cc2OC)CC1 [Compound 98]
6.00 to 6.70

Give pEC50 for each of the items listed below.
1. C=CC(=O)N1CC(c2cc3c(Nc4ccc(Cl)c5ccccc45)ncnc3cc2OC)C1 [Compound 7]
2. C=C(F)C(=O)N[C@H]1C[C@@H](Oc2cc3c(Nc4ccc(Cl)c(Cl)c4F)ncnc3cc2OC)C1 [Compound 40]
3. C=CC(=O)N[C@H]1C[C@@H](Oc2cc3c(Nc4ccc(Cl)c(Cl)c4F)ncnc3cc2OCCN(C)C)C1 [Compound 101]
4. C=CC(=O)N1CCC(Oc2cc3c(NCc4cccc(I)c4)ncnc3cc2OC)CC1 [Compound 125]

Reply:
1: ≥ 6.70; 2: ≥ 6.70; 3: ≥ 6.70; 4: ≥ 6.70
